Here, each record is paired with measured anti-nociception score (hot plate) after NT data.
Test system: neurotensin receptor-1 (NTR1)
procedure.text: Hot plate test of NT-mediated anti-nociception in PNA-treated rats
Format: in vivo, rat
condition.info: 10 mg/kg intraperitoneally; NT 18 nmol into PAG 24 hours later
Just the number please, in % MPE, no unit attached.

Some entries whose results are on file:
NTR1-PNA: 12-mer antisense PNA oligomer to rat NTR1 coding region, 5′-CATTGCTCAAAC-3′ (SEQ ID NO: 1) (all peptide nucleic acid (PNA))	25
mismatch-AS-NTR1-PNA: PNA oligomer like AS-NTR1-PNA with a mismatch at every third base pair, 5′-TATGGCACAGAC-3′ (SEQ ID NO:12) (all peptide nucleic acid (PNA); further chemistry not fully specified)	60
sense-NTR1-PNA: sense PNA oligomer for NTR1, complementary to AS-NTR1-PNA, 5′-GTTTGAGCAATG-3′ (SEQ ID NO:13) (all peptide nucleic acid (PNA); sense control PNA, further chemistry not fully specified)	5.4

Okay, next one:
**Query** # get_value(readout='anti-nociception score (hot plate) after NT', item= MU1R-PNA: 14-mer antisense PNA oligomer to mu-1 receptor 5′ non-coding region, 5′-CAGCCTCTTCCTCT-3′ (SEQ ID NO: 2) (all peptide nucleic acid (PNA); further chemistry not fully specified) )
**Result** 82

----------
Test system: [125I]neurotensin binding sites (NT receptors)
procedure.text: [125I]neurotensin binding assay, PAG and hypothalamus homogenates of treated rats
Assay type: in vivo, rat
condition.info: [125I]neurotensin, hypothalamus of treated rats, 24 hours after single oral 10 mg/kg; read-out: KD (mean ± SEM in nM)
experimental.readout: Kd

**Query** # get_value(readout='Kd', item= NTR1-PNA: 12-mer antisense PNA oligomer to rat NTR1 coding region, 5′-CATTGCTCAAAC-3′ (SEQ ID NO: 1) (all peptide nucleic acid (PNA)) )
**Result** 7 nM

----------
Test system: [125I]neurotensin binding sites (NT receptors)
procedure.text: [125I]neurotensin binding assay, PAG and hypothalamus homogenates of treated rats
Assay type: in vivo, rat
condition.info: [125I]neurotensin, PAG of treated rats, 24 hours after single oral 10 mg/kg; read-out: KD (mean ± SEM in nM)
experimental.readout: Kd (nM)
Just the number please, in nM, no unit attached.

**Query** # get_value(readout='Kd', item= NTR1-PNA: 12-mer antisense PNA oligomer to rat NTR1 coding region, 5′-CATTGCTCAAAC-3′ (SEQ ID NO: 1) (all peptide nucleic acid (PNA)) )
**Result** 8.2
